target-entity: T1, 包含有His标签的重组人源TSLP蛋白(rhTSLP-His) (human)
T1 construct: also called rhTSLP-His重组蛋白; rhTSLP-His蛋白
assay-overview: ELISA, rhTSLP-His coated at 100 ng/well
Reported EC50 values are given for each entry in this list.
The response must be a number in nM with no trailing unit.

Use the examples below as a reference point.
鼠源抗TSLP单克隆抗体9F8-1-25 (antibody, V domains shown, Mouse hybridoma monoclonal antibody) VH: VQLQQSGPQLVRPGASVKISCKASGYSFTTYWMHWVKQRPGQGLEWIGIIDPSDSETTLNQKFKDKATLTVDKSSSTAYIQLSSPTSEDSAVYYCTRSLDGYFDYWGQGTTVTV VL: DIDLTQSPASLSASVGETVTITCRAGENIYSYLAWYQQKQGKSPQLLVYNAKILAESVPSRFSGSGSGTQFSLKINSLQPEDFGIYSCQHHYDTPWTFGGGTKLE    11.4
鼠源抗TSLP单克隆抗体5F10-2-25 (antibody, V domains shown, Mouse hybridoma monoclonal antibody) VH: ELQQSGPQLVRPGASVKISCKASGYSFTSYWMHWVKQRPGQGLEWIGLIDPTDSEISLSQKFKDKATLTVDKLSSTAHMQLSSPTSEDSAVYYCARSLDGFFDQWGQGTTVTV VL: DIDLTQSPASLSASVGETVTITCRTSENIYSYLAWYQQKQGKSPQLLVYNAKSLAEGVPSRFSGSGSGTQFSLKINSLQPEDFGSYYCQHHYDTPWTFGGGTKLENKT    12.4
鼠源抗TSLP单克隆抗体10D9-M-432 (antibody, V domains shown, Mouse hybridoma monoclonal antibody) VH: VNCKESGPQLVRPGASVKISCKASAYSFTTYWMHWVKQRPGQGLEWIGLIDPSDSETTLNQKFKDKATLTVDKSSSTAYMQLTSPTSEDSAVYYCARSLDGYFDYWGQGTTVTVSS VL: DIDLTQSPASLSASVGETVTITCRAGENIYSYLAWYQQKQGKSPQLLVYNAKILAESVPSRFSGSGSGTQFSLKINSLQPEDFGIYSCQHHYDTPWTFGGGTKLE    8.16

Switching to the query record.
Reported EC50, binder Tezepelumab(安进和阿斯利康合作开发抗体) (antibody, V domains shown) VH: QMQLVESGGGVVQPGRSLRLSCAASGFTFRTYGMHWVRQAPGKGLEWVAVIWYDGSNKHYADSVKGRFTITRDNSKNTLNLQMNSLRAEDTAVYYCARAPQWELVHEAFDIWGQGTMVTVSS VL: SYVLTQPPSVSVAPGQTARITCGGNNLGSKSVHWYQQKPGQAPVLVVYDDSDRPSWIPERFSGSNSGNTATLTISRGEAGDEADYYCQVWDSSSDHVVFGGGTKLTVLG : ____
2.93
